test system: LPS-induced TNFα secretion by RAW264.7 cells; experiment: LPS stimulation, TNFα release (ELISA); assay type: cell-based, murine; details: 100 ng/ml LPS O111:B4, RAW264.7, 24 h; read-out: Concentration reducing LPS-induced macrophage activation for 50%
pIC50: −log10 of the molar value. Positions of bridges follow the written chain, without caps; N, C: chain ends. Chains are numbered I, II in the order given. No end group written: not given here.

{"Substance": "I: Ac-GRFRRLRKKTRKRLKKIGKVLKWIPPIVGSIPLGCG / II: Ac-GRFRRLRKKTRKRLKKIGKVLKWIPPIVGSIPLGCG (disulfide I:35-II:35) [PMAP-36]", "pIC50": 5.30}

Origin of measurements: paper PMC6423055
